Target: human recombinant TRPV1 (Homo sapiens (Human), UniProt Q8NER1)
Sequence (Q8NER1 whole entry): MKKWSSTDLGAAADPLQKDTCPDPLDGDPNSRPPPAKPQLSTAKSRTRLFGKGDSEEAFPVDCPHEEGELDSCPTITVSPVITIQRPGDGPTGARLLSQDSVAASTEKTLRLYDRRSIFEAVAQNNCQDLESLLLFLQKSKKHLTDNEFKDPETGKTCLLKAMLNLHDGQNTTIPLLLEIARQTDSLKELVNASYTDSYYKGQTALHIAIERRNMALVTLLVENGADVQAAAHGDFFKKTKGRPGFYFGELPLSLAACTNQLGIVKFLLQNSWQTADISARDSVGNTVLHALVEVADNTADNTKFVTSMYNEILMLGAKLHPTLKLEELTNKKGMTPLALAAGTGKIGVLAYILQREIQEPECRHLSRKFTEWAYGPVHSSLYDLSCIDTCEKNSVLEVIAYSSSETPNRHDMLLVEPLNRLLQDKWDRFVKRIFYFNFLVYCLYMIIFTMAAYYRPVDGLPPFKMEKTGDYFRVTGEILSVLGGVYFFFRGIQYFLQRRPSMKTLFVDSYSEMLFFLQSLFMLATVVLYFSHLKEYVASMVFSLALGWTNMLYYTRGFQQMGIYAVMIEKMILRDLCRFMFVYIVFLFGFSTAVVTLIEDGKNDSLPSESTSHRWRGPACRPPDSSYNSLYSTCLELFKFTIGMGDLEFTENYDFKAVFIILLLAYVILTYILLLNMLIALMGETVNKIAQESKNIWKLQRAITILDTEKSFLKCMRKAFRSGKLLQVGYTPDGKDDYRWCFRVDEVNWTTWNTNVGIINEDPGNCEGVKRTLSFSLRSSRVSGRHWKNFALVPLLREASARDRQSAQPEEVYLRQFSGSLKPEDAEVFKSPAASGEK
Assay: TRPV1 pH-Based Assay (Protocol 2, Ca2+ response in TRPV1/CHO cells, Fura-2)
Assay type: cell-based
Conditions: TRPV1/CHO cells, pH 5.0-5.1; read-out: IC50 value by the pH-Based Assay
Property: IC50; scope: individual molecules

Worked examples, 2 molecules total:
{"molecule": "O=C(Nc1nc2ccc(F)cc2s1)N1C2CCC1CN(c1ncc(C[C@H](O)CO)cc1F)C2", "result": "≤ 50 nM"}
{"molecule": "COc1cc(NC(=O)N2CC=C(c3ncc(C[C@@H](O)CO)cc3Cl)CC2)ccc1C(F)(F)F", "result": "≤ 50 nM"}

Now for another entry.
Lab note: C[C@@H]1CN(c2ncc(C[C@@H](O)CO)cc2F)CCN1C(=O)Nc1nc2ccc(F)cc2s1 gave IC50 of ≤ 50 nM

---

Molecular target: human recombinant TRPV1 (Homo sapiens (Human), UniProt Q8NER1)
Experiment: TRPV1 pH-Based Assay (Protocol 2, Ca2+ response in TRPV1/CHO cells, Fura-2)
Assay type: cell-based
Details: TRPV1/CHO cells, pH 5.0-5.1; compounds of the invention; read-out: TRPV1 IC50 Potency (pH-Based Assay), Compound IC50
Each entry falls in a class defined on IC50; the bands are lower level: < 0.01 µM; middle level: ≥ 0.01 µM and < 0.05 µM; upper level: ≥ 0.05 µM

Worked cases, answers included:
{"molecule": "O=C(Nc1nc2ccc(F)cc2s1)N1CC=C(c2ncc(CC(O)CO)cc2Cl)CC1 (stereo not shown)", "assigned_category": "lower level"}
{"molecule": "O=C(Nc1ccc(C(F)(F)F)cn1)N1CCC(F)(c2ncc([C@H](O)[C@H](O)CO)cc2Cl)CC1", "assigned_category": "upper level"}
{"molecule": "O=C(Nc1ccc(OC(F)(F)F)cn1)N1CC=C(c2ncc(C(F)(F)[C@@H](O)CO)cc2Cl)CC1", "assigned_category": "middle level"}
{"molecule": "O=C(Nc1ccc(C(F)(F)F)cn1)N1CC=C(c2ncc(CC(O)CO)cc2Cl)CC1 (stereo not shown)", "assigned_category": "middle level"}
{"molecule": "O=C(Nc1nc2ccc(C(F)(F)F)cc2s1)N1CCC(F)(c2ncc(C[C@H](O)CO)cc2Cl)CC1", "assigned_category": "upper level"}
{"molecule": "O=C(Nc1ccc(OC(F)(F)F)c(Cl)c1)N1CC=C(c2ncc(C[C@@H](O)CO)cc2Cl)CC1", "assigned_category": "middle level"}
{"molecule": "O=C(Nc1nc2ccc(C(F)(F)F)cc2s1)N1CCC(F)(c2ncc([C@H](O)[C@H](O)CO)cc2Cl)CC1", "assigned_category": "upper level"}
{"molecule": "O=C(Nc1ccc(C(F)(F)F)cc1)N1CC=C(c2ncc(CC(O)CO)cc2Cl)CC1 (stereo not shown)", "assigned_category": "middle level"}

// switching to the query molecule
Please classify: CO[C@@H]1CN(c2ncc(C[C@@H](O)CO)cc2Cl)CCN1C(=O)Nc1nc2ccc(F)cc2s1
lower level

---

Target: human recombinant TRPV1 (Homo sapiens (Human))
Experiment: TRPV1 Capsaicin-Based Assay (Protocol 2, TRPV1/CHO cells, Fluo-4, FLIPR)
Assay type: cell-based
Details: TRPV1/CHO cells, capsaicin 100 nM final; read-out: IC50 value by the Capsaicin-Based Assay
We begin with a simple list: items and their reported IC50.

{"molecule": "O=C(Nc1nc2ccc(Cl)cc2s1)N1CCN(c2ncc(C[C@@H](O)CO)cc2F)CC1", "IC50": "≤ 50 nM"}

Sample CC1(C)CN(c2ncc(C[C@H](O)CO)cc2F)CCN1C(=O)Nc1nc2ccc(F)cc2s1 , system: human recombinant TRPV1 (Homo sapiens (Human)). Its IC50 is ≤ 50 nM

Fill in: human recombinant TRPV1 (Homo sapiens (Human)) IC50 for Cc1cc(NC(=O)N2CCC(F)(c3ncc(C[C@H](O)CO)cc3F)CC2)ccc1C(F)(F)F = ≤ 50 nM

Summary: C[C@H]1CN(C(=O)Nc2nc3ccc(Cl)cc3s2)CCN1c1ncc(C[C@H](O)CO)cc1F , human recombinant TRPV1 (Homo sapiens (Human)), IC50 = ≤ 50 nM

---

Biological target: human recombinant TRPV1 (Homo sapiens (Human), UniProt Q8NER1)
Experiment: TRPV1 Capsaicin-Based Assay (Protocol 2, TRPV1/CHO cells, Fluo-4, FLIPR)
Format: cell-based
Settings: TRPV1/CHO cells, capsaicin 100 nM final; comparative compounds; read-out: TRPV1 IC50 Potency (Capsaicin-Based Assay), Comparative compound IC50
metric: pIC50
When answering, recall that pIC50 equals minus log10 of the concentration in mol/L, and write that number alone.

The molecule identified as Cc1cc(NC(=O)N2CCC(F)(c3ncccc3F)CC2)ccc1OC(F)(F)F [reference compound] registered its pIC50 at 7.00

---

Molecular target: human recombinant TRPV1 (Homo sapiens (Human), UniProt Q8NER1)
Assay: TRPV1 Capsaicin-Based Assay (Protocol 2, TRPV1/CHO cells, Fluo-4, FLIPR)
Assay type: cell-based
Conditions: TRPV1/CHO cells, capsaicin 100 nM final; compounds of the invention; read-out: TRPV1 IC50 Potency (Capsaicin-Based Assay), Compound IC50
IC50 listing for selected molecules.
Answer with a number only, understood to be in nM.

# example entries with known answers
{"molecule": "C[C@@H]1CN(c2ncc(C[C@@H](O)CO)cc2F)CCN1C(=O)Nc1nc2ccc(Cl)cc2s1 [drawing 500]", "IC50 / nM": 8}
{"molecule": "Cc1cc(NC(=O)N2CCC(F)(c3ncc(C[C@H](O)CO)cc3F)CC2)ccc1OC(F)(F)F [drawing 496]", "IC50 / nM": 46}
{"molecule": "O=C(Nc1nc2ccc(F)cc2s1)N1CCC(F)(c2ncc(C[C@H](O)CO)cc2Cl)CC1", "IC50 / nM": 116}

Now for the molecule whose IC50 we want.
IC50 in this record for Cc1cc(NC(=O)N2CC=C(c3ncc(C[C@@H](O)CO)cc3Cl)CC2)ccc1C(F)(F)F [drawing 501] : 40

---

Assay: Measurement of body temperature increase (rectal body temperature)
Assay type: in vivo, rat
Settings: Crl/SD rats, oral, 1 mg/mL at 10 mL/kg
metric: Body temperature increase

# annotated cases, reported Body temperature increase shown
{"molecule": "O=C(Nc1ccc(C(F)(F)F)c(Cl)c1)N1CC=C(c2ncc(C[C@H](O)CO)cc2Cl)CC1", "Body temperature increase": "less than 0.5 °C"}
{"molecule": "Cc1cc(NC(=O)N2CC=C(c3ncc(C[C@H](O)CO)cc3F)CC2)ccc1C(F)(F)F", "Body temperature increase": "less than 0.5 °C"}
{"molecule": "Cc1ccc2nc(NC(=O)N3CCN(c4ncc(C[C@H](O)CO)cc4Cl)CC3)sc2c1", "Body temperature increase": "less than 0.5 °C"}
{"molecule": "Cc1ccc2nc(NC(=O)N3CCN(c4ncc(C[C@@H](O)CO)cc4Cl)CC3)sc2c1", "Body temperature increase": "less than 0.5 °C"}
{"molecule": "O=C(Nc1nc2ccc(F)cc2s1)N1CCN(c2ncc(C[C@@H](O)CO)cc2Cl)CC1", "Body temperature increase": "less than 0.5 °C"}
{"molecule": "C[C@H]1CN(c2ncc(C[C@H](O)CO)cc2Cl)CCN1C(=O)Nc1nc2ccc(Cl)cc2s1", "Body temperature increase": "less than 0.5 °C"}
{"molecule": "O=C(Nc1nc2ccc(F)cc2s1)N1CCC(F)(c2ncc(C[C@@H](O)CO)cc2Cl)CC1", "Body temperature increase": "less than 0.5 °C"}
{"molecule": "Cc1cc(NC(=O)N2CC=C(c3ncc(C[C@H](O)CO)cc3C)CC2)ccc1C(F)(F)F", "Body temperature increase": "less than 0.5 °C"}
{"molecule": "O=C(Nc1nc2ccc(Cl)cc2s1)N1CCN(c2ncc(C[C@@H](O)CO)cc2Cl)CC1", "Body temperature increase": "less than 0.5 °C"}
{"molecule": "O=C(Nc1nc2ccc(F)cc2s1)N1CCN(c2ncc(C[C@H](O)CO)cc2F)CC1", "Body temperature increase": "less than 0.5 °C"}

Shift focus to the following entry.
Sample Cc1cc(NC(=O)N2CCC(F)(c3ncc(C[C@H](O)CO)cc3F)CC2)ccc1C(F)(F)F ; Body temperature increase observed: less than 0.5 °C
